# System: HTB-140 cells (melanoma)
# TEST NAME: MTT cytotoxicity assay, HTB-140
# Type: cell-based, human
# RECORDED CONDITIONS: Homo sapiens; HTB-140, MTT, mean ± SD
# From the text: All derivatives of bis(2-aminoethyl)amine were screened for their in vitro cytotoxic activity against a panel of human cancer cell lines, namely colorectal adenocarcinoma (CaCo-2), epithelial lung carcinoma (A549), and melanoma (HTB-140), which is contrary to normal (HaCaT) cell lines, by using the MTT method. Description related to conducted biological studies including cell culture, suitable conditions, and methodology was presented in our previous paper.
REPORTED METRIC: IC50 (µM)
Answer with a number only, understood to be in µM.

Which value of IC50 has been reported for S=C(NCCc1ccccc1)NCCN(CCNC(=S)NCCc1ccccc1)C(=S)NCCc1ccccc1 in the records?
14

Which value of IC50 has been reported for S=C(NCCN(CCNC(=S)Nc1ccc(Br)cc1)C(=S)Nc1ccc(Br)cc1)Nc1ccc(Br)cc1 in the records?
14.7

Which value of IC50 has been reported for COc1cccc2c1C(=O)c1c(O)c3c(c(O)c1C2=O)C[C@@](O)(C(=O)CO)C[C@@H]3O[C@H]1C[C@H](N)[C@H](O)[C@H](C)O1 [Doxorubicin, reference compound] in the records?
0.47

====

# Tested on: HaCaT cells (immortal keratinocytes)
# TEST NAME: MTT cytotoxicity assay, HaCaT normal cells
# Assay type: cell-based, human
# RECORDED CONDITIONS: Homo sapiens, mean ± SD
# label = 1 if IC50 < 20 µM else 0

Threshold test, IC50 < 20 µM: S=C(NCCc1ccccc1)NCCN(CCNC(=S)NCCc1ccccc1)C(=S)NCCc1ccccc1 [Compound 6]
1

Threshold test, IC50 < 20 µM: COc1ccc(NC(=S)NCCN(CCNC(=S)Nc2ccc(OC)cc2)C(=S)Nc2ccc(OC)cc2)cc1 [Compound 1]
0

Threshold test, IC50 < 20 µM: Fc1ccc(NC(=S)NCCN(CCNC(=S)Nc2ccc(F)c(Cl)c2)C(=S)Nc2ccc(F)c(Cl)c2)cc1Cl [Compound 5]
1

Threshold test, IC50 < 20 µM: S=C(NCCN(CCNC(=S)Nc1ccc(Br)cc1)C(=S)Nc1ccc(Br)cc1)Nc1ccc(Br)cc1 [Compound 4]
1

Threshold test, IC50 < 20 µM: S=C(NCCN(CCNC(=S)Nc1ccccc1)C(=S)Nc1ccccc1)Nc1ccccc1 [Compound 2]
0

Threshold test, IC50 < 20 µM: COc1cccc2c1C(=O)c1c(O)c3c(c(O)c1C2=O)C[C@@](O)(C(=O)CO)C[C@@H]3O[C@H]1C[C@H](N)[C@H](O)[C@H](C)O1 [Doxorubicin, reference compound]
1

Threshold test, IC50 < 20 µM: COc1ccc(NC(=S)N(CCNc2nnnn2-c2ccc(OC)cc2)CCNc2nnnn2-c2ccc(OC)cc2)cc1 [Compound 7]
0

Threshold test, IC50 < 20 µM: S=C(NCCN(CCNC(=S)Nc1ccc(Cl)cc1)C(=S)Nc1ccc(Cl)cc1)Nc1ccc(Cl)cc1 [Compound 3]
0

Data origin, for the record: paper PMC7355942
